Experimental target: DPP-IV (Homo sapiens)
Construct: purchased Enzyme Systems Products SPE-01
Assay overview: In vitro assay for dipeptidyl peptidase inhibition
Assay type: biochemical
Applied conditions: n-value given in brackets; read-out: DPP-IV IC50
Counter-ions that a name gives are not always drawn.
Parameter measured: pIC50
Answers are plain numbers, as −log10 of the molar value.

Worked examples, 8 molecules total:
Molecule: N[C@H]1CN(c2ncnc(N3CCCC3)n2)C[C@@H]1N1CCCCC1=O
Experimental target: DPP-IV (Homo sapiens)
pIC50: 7.04
--
Molecule: N[C@H]1CN(c2cc(N3CCC(F)(F)C3)ncn2)C[C@@H]1N1CC(F)(F)CCC1=O
Experimental target: DPP-IV (Homo sapiens)
pIC50: 8.08
--
Molecule: Cc1nc(N2CC[C@H](F)C2)cc(N2C[C@H](N)[C@@H](N3CC(F)(F)CCC3=O)C2)n1
Experimental target: DPP-IV (Homo sapiens)
pIC50: 7.43
--
Molecule: Cc1nc(N2C[C@H](N)[C@@H](N3CC(F)(F)CCC3=O)C2)cc(N2CCC(F)(F)C2)n1
Experimental target: DPP-IV (Homo sapiens)
pIC50: 7.90
--
Molecule: N[C@H]1CN(c2ncnc(-c3ccccc3)n2)C[C@@H]1N1CCCCC1=O [Example 85, hydrochloride]
Experimental target: DPP-IV (Homo sapiens)
pIC50: 7.23
--
Molecule: N[C@H]1CN(c2ncnc3cc(Oc4cccc(F)c4)ccc23)C[C@@H]1N1CCCCC1=O
Experimental target: DPP-IV (Homo sapiens)
pIC50: 7.10
--
Molecule: CCSc1ccc2c(N3C[C@H](N)[C@@H](N4CCCCC4=O)C3)ncnc2c1
Experimental target: DPP-IV (Homo sapiens)
pIC50: 7.26
--
Molecule: N#Cc1ccccc1OC1CCN(c2ncnc(N3C[C@H](N)[C@@H](N4CCCCC4=O)C3)n2)CC1
Experimental target: DPP-IV (Homo sapiens)
pIC50: 6.96

The following molecules each have a reported value; give each one's pIC50.
1. N[C@H]1CN(c2cc(N3Cc4ccccc4C3)ncn2)C[C@@H]1N1CCCC1=O
2. N[C@H]1CN(c2ncnc(N3Cc4ccccc4C3)n2)C[C@@H]1N1CCCCC1=O
3. N[C@H]1CN(c2cc(N3CCc4ncsc4C3)ncn2)C[C@@H]1N1CCCC1=O
4. N[C@H]1CN(c2ncnc3ccc(Cl)cc23)C[C@@H]1N1CCCCC1=O [Example 104, hydrochloride]

[6.75, 7.32, 6.19, 6.88]

The following molecules each have a reported value; give each one's pIC50.
1. N[C@H]1CN(c2cc(N3CC[C@H](F)C3)ncn2)C[C@@H]1N1CC(F)(F)CCC1=O
2. CC(C)(O)c1ccc2c(N3C[C@H](N)[C@@H](N4CCCCC4=O)C3)ncnc2c1
3. Cc1nc(N2C[C@H](N)[C@@H](N3CC(F)(F)CCC3=O)C2)cc(N2CCCC(F)(F)C2)n1
4. N[C@H]1CN(c2ncnc3cc(O)ccc23)C[C@@H]1N1CCCCC1=O [Example 123, trifluoroacetate]
5. N[C@H]1CN(c2ncnc3cc(Oc4ccc(OC(F)(F)F)cc4)ccc23)C[C@@H]1N1CCCCC1=O [Example 133]
6. N[C@H]1CN(c2ncnc3c(F)cccc23)C[C@@H]1N1CCCCC1=O
7. CO[C@@H]1CCN(c2ncnc(N3C[C@H](N)[C@@H](N4CCCCC4=O)C3)n2)C1
8. N[C@H]1CN(c2cc(N3CCc4nocc4C3)ncn2)C[C@@H]1N1CC(F)(F)CCC1=O

[7.92, 7.18, 7.01, 6.95, 6.70, 6.96, 6.49, 8.22]

The following molecules each have a reported value; give each one's pIC50.
1. CNS(=O)(=O)c1cccc2c1CCN(c1ncnc(N3C[C@H](N)[C@@H](N4CCCCC4=O)C3)n1)C2
2. CO[C@H]1CCN(c2ncnc(N3C[C@H](N)[C@@H](N4CCCCC4=O)C3)n2)C1
3. CS(=O)(=O)c1ccccc1S(=O)(=O)Oc1ccc2c(N3C[C@H](N)[C@@H](N4CCCCC4=O)C3)ncnc2c1
4. N[C@H]1CN(c2ncnc(NC3CCCCC3)n2)C[C@@H]1N1CCCCC1=O
5. CSc1ccc(Sc2ccc3c(N4C[C@H](N)[C@@H](N5CCCCC5=O)C4)ncnc3c2)cc1
6. COc1ccc2c(N3C[C@H](N)[C@@H](N4CCCCC4=O)C3)nncc2c1
7. N[C@H]1CN(c2cc(N3Cc4ccc(C(F)(F)F)cc4C3)ncn2)C[C@@H]1N1CCCCC1=O
8. COc1ccc2c(N3C[C@H](N)[C@@H](N4CC(F)(F)CCC4=O)C3)ncnc2c1

1: 7.94; 2: 6.25; 3: 8.70; 4: 6.77; 5: 6.14; 6: 7.34; 7: 7.03; 8: 7.47

The following molecules each have a reported value; give each one's pIC50.
1. CC(C)Oc1ccc2c(N3C[C@H](N)[C@@H](N4CC(F)(F)CCC4=O)C3)ncnc2c1
2. N[C@H]1CN(c2cc(N3CCc4ccccc4CC3)ncn2)C[C@@H]1N1CCCC1=O

[7.35, 6.10]

----------
Give measured IC50 for each item. Keep answers brief.
Experimental target: DPP-IV (Homo sapiens, UniProt P27487)
Construct: purchased Enzyme Systems Products SPE-01
Sequence (P27487 whole entry, species assumed): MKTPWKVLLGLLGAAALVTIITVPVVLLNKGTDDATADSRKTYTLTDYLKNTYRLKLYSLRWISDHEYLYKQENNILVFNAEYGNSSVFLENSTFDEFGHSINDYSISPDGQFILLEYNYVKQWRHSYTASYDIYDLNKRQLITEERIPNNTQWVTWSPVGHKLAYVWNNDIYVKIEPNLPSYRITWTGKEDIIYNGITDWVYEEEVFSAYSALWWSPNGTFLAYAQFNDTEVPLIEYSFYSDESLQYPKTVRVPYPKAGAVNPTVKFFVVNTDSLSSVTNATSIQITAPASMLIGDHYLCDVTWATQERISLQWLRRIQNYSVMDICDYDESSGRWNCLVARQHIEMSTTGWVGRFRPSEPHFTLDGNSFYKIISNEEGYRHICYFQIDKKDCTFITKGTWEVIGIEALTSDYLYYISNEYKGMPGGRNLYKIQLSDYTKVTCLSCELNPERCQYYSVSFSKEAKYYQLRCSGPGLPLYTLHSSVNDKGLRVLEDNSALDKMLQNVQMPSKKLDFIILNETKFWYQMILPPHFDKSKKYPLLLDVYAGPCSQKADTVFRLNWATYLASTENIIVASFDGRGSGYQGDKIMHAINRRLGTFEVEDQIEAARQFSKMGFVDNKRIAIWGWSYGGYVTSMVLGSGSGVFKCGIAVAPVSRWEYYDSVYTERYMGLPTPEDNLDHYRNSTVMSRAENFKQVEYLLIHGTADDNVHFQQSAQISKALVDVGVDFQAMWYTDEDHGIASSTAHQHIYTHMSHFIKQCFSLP
Assay overview: In vitro assay for dipeptidyl peptidase inhibition
Format: biochemical
Applied conditions: Examples 156-162; n-value in brackets; IC50's or percent inhibition at 300 nM; read-out: DPP-IV inhibition
Structures can show the parent of a compound that is named as a salt.
Numbers only, in nM.

Worked examples, 2 compounds total:
Compound: N[C@H]1CN(C(=O)c2cc3cc(Cl)ccc3o2)C[C@@H]1N1CCCCC1=O
Measurement units: nM
IC50: 212
--
Compound: N[C@H]1CN(C(=O)c2cc3ccccc3o2)C[C@@H]1N1CCCCC1=O [Example 156, hydrochloride]
Measurement units: nM
IC50: 187

Alright, here's another compound for you.
Read the entry N[C@H]1CN(C(=O)c2cc3ccc(Cl)cc3o2)C[C@@H]1N1CCCCC1=O and write its reported IC50.
231

----------
Give measured IC50 for each item. Keep answers brief.
Experimental target: DPP-IV (Homo sapiens, UniProt P27487)
Construct: purchased Enzyme Systems Products SPE-01
Assay overview: In vitro assay for dipeptidyl peptidase inhibition
Assay type: biochemical
Applied conditions: Examples 156-162; n-value in brackets; IC50's or percent inhibition at 300 nM; read-out: DPP-IV inhibition
Hi, when you answer, please include the unit after the number. Thanks!

Worked examples, 3 molecules total:
Sample smiles: N[C@H]1CN(C(=O)c2cc3ccccc3s2)C[C@@H]1N1CCCCC1=O
Parameter measured: IC50
Measurement: 317 nM
--
Sample smiles: COc1ccc2oc(C(=O)N3C[C@H](N)[C@@H](N4CCCCC4=O)C3)cc2c1
Parameter measured: IC50
Measurement: 79.3 nM
--
Sample smiles: N[C@H]1CN(C(=O)c2cc3cc(Cl)ccc3[nH]2)C[C@@H]1N1CCCCC1=O
Parameter measured: IC50
Measurement: 1160 nM

Read the entry COc1ccc2[nH]c(C(=O)N3C[C@H](N)[C@@H](N4CCCCC4=O)C3)cc2c1 and write its reported IC50.
1460 nM

----------
Experimental target: DPP-IV (Homo sapiens)
Construct: purchased Enzyme Systems Products SPE-01
Assay overview: In vitro assay for dipeptidyl peptidase inhibition
Type: biochemical
Applied conditions: n-value given in brackets; read-out: DPP-IV IC50
pIC50: −log10 of the molar value. Counter-ions that a name gives are not always drawn.
Label true when pIC50 is at or above 7; anything below gets false.

Some solved cases for reference:
Molecule: N[C@H]1CN(c2cc(-c3ccc(O)nc3)ncn2)C[C@@H]1N1CCCCC1=O
Experimental target: DPP-IV (Homo sapiens)
Category: true
//
Molecule: N[C@H]1CN(c2ncnc3cc(Oc4ccc(F)cc4)ccc23)C[C@@H]1N1CCCCC1=O
Experimental target: DPP-IV (Homo sapiens)
Category: false
//
Molecule: N[C@H]1CN(c2cc(-c3ccccc3)ncn2)C[C@@H]1N1CCCC1=O [Example 6, dihydrochloride]
Experimental target: DPP-IV (Homo sapiens)
Category: false
//
Molecule: Cc1nc(N2C[C@H](N)[C@@H](N3CCCCC3=O)C2)cc(N2CCCC(F)(F)C2)n1
Experimental target: DPP-IV (Homo sapiens)
Category: false

Identify whether the reported pIC50 of the following molecule is 7 or greater: CCc1nc(N2C[C@H](N)[C@@H](N3CCCCC3=O)C2)cc(N2CCC(F)(F)C2)n1
true

Identify whether the reported pIC50 of the following molecule is 7 or greater: CC(C)c1ccc2c(N3C[C@H](N)[C@@H](N4CCCCC4=O)C3)ncnc2c1
true

Identify whether the reported pIC50 of the following molecule is 7 or greater: N[C@H]1CN(c2ncnc3cc(OC(F)F)ccc23)C[C@@H]1N1CCCCC1=O
true

Identify whether the reported pIC50 of the following molecule is 7 or greater: COc1ccc(-c2cc(N3C[C@H](N)[C@@H](N4CCCCC4=O)C3)ncn2)cn1 [Example 87, dihydrochloride]
true

Identify whether the reported pIC50 of the following molecule is 7 or greater: N[C@H]1CN(c2cc(N3CCc4nc[nH]c4C3)ncn2)C[C@@H]1N1CCCC1=O
false

Identify whether the reported pIC50 of the following molecule is 7 or greater: COc1ccc(-c2cc(N3C[C@H](N)[C@@H](N4CC(F)(F)CCC4=O)C3)ncn2)cn1 [Example 9, trifluoroacetate]
true

Identify whether the reported pIC50 of the following molecule is 7 or greater: N#Cc1ccc(Oc2ccc3c(N4C[C@H](N)[C@@H](N5CCCCC5=O)C4)ncnc3c2)nc1
false

Identify whether the reported pIC50 of the following molecule is 7 or greater: CCCOc1cc(N2C[C@H](N)[C@@H](N3CCCCC3=O)C2)ncn1 [Example 89, trifluoroacetate]
false

Identify whether the reported pIC50 of the following molecule is 7 or greater: N[C@H]1CN(c2nncc3ccccc23)C[C@@H]1N1CCCCC1=O [Example 145, trifluoroacetate]
false

Identify whether the reported pIC50 of the following molecule is 7 or greater: N[C@H]1CN(c2ncnc(N3CCC(F)(F)C3)n2)C[C@@H]1N1CCCCC1=O
true

Identify whether the reported pIC50 of the following molecule is 7 or greater: N[C@H]1CN(c2cc(N3CCc4nocc4C3)ncn2)C[C@@H]1N1CCCCC1=O [Example 5, dihydrochloride]
true

Identify whether the reported pIC50 of the following molecule is 7 or greater: N[C@H]1CN(c2ncnc(N3Cc4ccccc4C3)n2)C[C@@H]1N1CC(F)(F)CCC1=O
true

Identify whether the reported pIC50 of the following molecule is 7 or greater: COc1ccc2c(N3C[C@H](N)[C@@H](N4CCCCC4=O)C3)ncnc2c1 [Example 103, hydrochloride]
true

The origin of these recorded values is patent US7485641B2.
